# Test system: human liver cancer cell HepG2
# assayComment: Antitumor activity test (MTT reduction / SRB protein staining), growth inhibition of HepG2
# Format: cell-based
# runConditions: HepG2, 48-72 hrs
readoutLabel: pIC50
Reminder that pIC50 means the negative base-10 logarithm of the concentration expressed in mol/L.

Give the reported pIC50 for CC(=Cc1csc(C)n1)C1CC2OC2CCCC(C)C(O)C(C)C(=O)C(C)(C)C(OC2OC(CO)C(O)C2O)CC(=O)O1 (stereo not shown) [epothilone glycoside A-1] (system: human liver cancer cell HepG2).
7.15
